Entries and their measured pKd follow.
Target: Lanosterol 14-alpha demethylase (Mycobacterium tuberculosis (strain CDC 1551 / Oshkosh))
Sequence (P9WPP8 whole entry): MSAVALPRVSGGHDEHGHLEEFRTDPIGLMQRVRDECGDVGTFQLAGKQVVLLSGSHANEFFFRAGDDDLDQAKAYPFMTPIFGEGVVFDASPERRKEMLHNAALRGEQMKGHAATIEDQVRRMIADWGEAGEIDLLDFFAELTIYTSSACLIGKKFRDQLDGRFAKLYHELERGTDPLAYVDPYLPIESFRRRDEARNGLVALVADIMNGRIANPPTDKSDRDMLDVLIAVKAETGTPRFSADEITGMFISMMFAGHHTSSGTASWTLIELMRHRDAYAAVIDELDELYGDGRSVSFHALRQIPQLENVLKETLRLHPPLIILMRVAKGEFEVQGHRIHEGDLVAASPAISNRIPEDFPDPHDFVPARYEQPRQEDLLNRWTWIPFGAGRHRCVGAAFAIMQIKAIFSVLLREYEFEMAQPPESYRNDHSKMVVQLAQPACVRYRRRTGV
Test: Ligand Binding Assay
Settings: pH 7.5; 37 °C
Description: The assay was developed based on the optical spectral property of P450 enzyme to elicit both type I and type II spectral changes (350 nm through 450 nm). The concentration dependence of the changes allows the binding affinities of the ligands to be estimated. Titration data were linearized by plotting S0/deltaA against S0, where S0 is the total concentration of a ligand and deltaA is the change in absorption. […]
pKd: −log10 of the molar value.
MEASURED_ENDPOINT: pKd

> print(dat)
                                   compound                               system.name  measured.endpoint  readout.value
1  COc1ccccc1C(CCN)c1ccco1 (stereo not drawn)  Lanosterol 14-alpha demethylase (Mycobacterium tuberculosis (strain CDC 1551 / Oshkosh))                pKd           5.12
2  C[C@]12CCC3c4ccc(O)cc4CCC3C1C[C@@H](O)[C@@H]2O (stereo partly drawn) [Epiestriol]  Lanosterol 14-alpha demethylase (Mycobacterium tuberculosis (strain CDC 1551 / Oshkosh))                pKd           4.00
3                     c1ccc(-c2c[nH]cn2)cc1  Lanosterol 14-alpha demethylase (Mycobacterium tuberculosis (strain CDC 1551 / Oshkosh))                pKd           2.89
4  CCC1(C)CC(CCN)(c2ccc(OC)cc2)CCO1 (stereo not drawn)  Lanosterol 14-alpha demethylase (Mycobacterium tuberculosis (strain CDC 1551 / Oshkosh))                pKd           5.12
5          O=C(Nc1ccncc1)C1(c2ccccc2)CCOCC1  Lanosterol 14-alpha demethylase (Mycobacterium tuberculosis (strain CDC 1551 / Oshkosh))                pKd           5.12
6         Nc1ccc(NS(=O)(=O)c2ccc(Cl)cc2)cc1  Lanosterol 14-alpha demethylase (Mycobacterium tuberculosis (strain CDC 1551 / Oshkosh))                pKd           5.12
7  NCC(=O)N1c2ccccc2SC2C=CC=CC21 (stereo not drawn)  Lanosterol 14-alpha demethylase (Mycobacterium tuberculosis (strain CDC 1551 / Oshkosh))                pKd           5.12
8  O=C1c2cc(O)ccc2-c2ccc(O)cc21 [2,7-Dihydroxy-9-fluorenone]  Lanosterol 14-alpha demethylase (Mycobacterium tuberculosis (strain CDC 1551 / Oshkosh))                pKd           4.43
